Each recorded value in this set is attributed to patent US20230114241A1.

Molecular target: UniProt:P21453
Sequence (P21453 whole entry): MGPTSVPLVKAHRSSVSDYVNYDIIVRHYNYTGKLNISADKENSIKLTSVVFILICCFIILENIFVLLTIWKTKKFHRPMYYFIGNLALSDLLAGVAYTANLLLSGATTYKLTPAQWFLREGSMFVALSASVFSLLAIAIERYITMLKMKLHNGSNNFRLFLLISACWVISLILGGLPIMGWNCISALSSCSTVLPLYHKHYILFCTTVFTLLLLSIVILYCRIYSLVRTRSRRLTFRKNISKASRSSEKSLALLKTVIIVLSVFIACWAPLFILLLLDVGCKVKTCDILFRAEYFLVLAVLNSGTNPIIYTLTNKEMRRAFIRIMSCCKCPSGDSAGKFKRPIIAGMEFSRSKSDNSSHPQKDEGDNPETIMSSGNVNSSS
Sequence (P32121 whole entry partner): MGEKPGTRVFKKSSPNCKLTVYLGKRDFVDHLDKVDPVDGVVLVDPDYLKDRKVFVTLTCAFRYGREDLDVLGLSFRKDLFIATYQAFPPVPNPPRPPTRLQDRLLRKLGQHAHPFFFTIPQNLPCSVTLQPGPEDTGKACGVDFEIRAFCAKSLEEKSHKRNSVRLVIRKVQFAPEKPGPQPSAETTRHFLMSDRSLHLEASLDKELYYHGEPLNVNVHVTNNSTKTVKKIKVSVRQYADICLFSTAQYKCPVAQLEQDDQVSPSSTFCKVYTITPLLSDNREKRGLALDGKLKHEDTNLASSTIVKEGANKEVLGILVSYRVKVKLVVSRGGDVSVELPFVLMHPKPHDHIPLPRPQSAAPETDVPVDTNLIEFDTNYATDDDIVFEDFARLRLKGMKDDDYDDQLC
Assay: β-Arrestin2 recruitment assay (PathHunter), S1P1 CHO-K1 cells
Assay type: cell-based
Conditions: β-arrestin2 recruitment; potency; read-out: hS1P1 B-arrestin2 pEC50 (converted)
READOUT NAME: EC50

Memo: COc1ccccc1-c1nnc(-c2ccc3c(c2)CCC(=O)N3)o1 , reported EC50: > 10 µM

Memo: CCn1nnc2cc(-c3noc(-c4ccccc4Br)n3)ccc21 , reported EC50: < 10 µM

Memo: CSc1cccc(-c2nc(-c3ccc4c(c3)nnn4C3CCCC3)no2)c1 , reported EC50: > 10 µM

Memo: Cc1cccc(-c2nc(-c3ccc4c(c3)nnn4C3CCCC3)no2)c1 , reported EC50: > 10 µM

Memo: Cc1cncc(-c2nc(-c3ccc4c(c3)nnn4C(C)C)no2)n1 , reported EC50: < 10 µM

Memo: C=CCn1nnc2cc(-c3nc(-c4ccccc4)no3)ccc21 , reported EC50: > 10 µM

Memo: CC(C)n1nnc2cc(-c3noc(C4CCC4)n3)ccc21 , reported EC50: > 10 µM

Memo: Cc1ccccc1-c1noc(-c2ccc3c(c2)CCC(=O)N3C)n1 , reported EC50: > 10 µM

Memo: FC(F)(F)c1cccc(-c2nc(-c3ccc4c(c3)nnn4C3CCCC3)no2)c1 , reported EC50: > 10 µM
